# protocol_details: A CellTox Green Cytotoxicity Assay to monitor cytotoxicity in HEK293 cells - 32 hour (AID 1224881); further: nearly all actives have a fitted effect of over 40% in size
# particulars: CellTox Green fluorescence; series mostly up to 76.8 µM
Results filed as inconclusive are left out. Activity calls are given as the source filed them. The call rests on the fitted dose curve; in most records, active means well fitted activation curve with a large enough effect in the repeat runs; inconclusive means weak or mixed curves; inactive means flat fitted curve, though single readings scatter.

[
  {
    "compound": "CC(C)C(Br)C(=O)NC(N)=O (configuration not stated)",
    "outcome": "inactive"
  },
  {
    "compound": "CC(C)c1c(CN(C)C(C)Cc2ccccc2)n(C)n(-c2ccccc2)c1=O (configuration not stated)",
    "outcome": "inactive"
  },
  {
    "compound": "C[C@@H]1CC2=CC(=O)CC[C@@H]2[C@H]2CC[C@@]3(C)[C@@H](CC[C@]3(C)O)[C@@H]21",
    "outcome": "inactive"
  },
  {
    "compound": "COC(=O)/C=C(\\C)OP(=O)(OC)OC",
    "outcome": "inactive"
  },
  {
    "compound": "CC(C)C(Nc1ccc(C(F)(F)F)cc1Cl)C(=O)OC(C#N)c1cccc(Oc2ccccc2)c1 (configuration not stated)",
    "outcome": "inactive"
  },
  {
    "compound": "Cc1cccc(Cc2cnc[nH]2)c1C",
    "outcome": "inactive"
  },
  {
    "compound": "CCCN",
    "outcome": "inactive"
  }
]

----------
# tgt: Acetylcholinesterase (Homo sapiens) (UniProt P22303)
# Sequence (P22303 whole entry, looked up): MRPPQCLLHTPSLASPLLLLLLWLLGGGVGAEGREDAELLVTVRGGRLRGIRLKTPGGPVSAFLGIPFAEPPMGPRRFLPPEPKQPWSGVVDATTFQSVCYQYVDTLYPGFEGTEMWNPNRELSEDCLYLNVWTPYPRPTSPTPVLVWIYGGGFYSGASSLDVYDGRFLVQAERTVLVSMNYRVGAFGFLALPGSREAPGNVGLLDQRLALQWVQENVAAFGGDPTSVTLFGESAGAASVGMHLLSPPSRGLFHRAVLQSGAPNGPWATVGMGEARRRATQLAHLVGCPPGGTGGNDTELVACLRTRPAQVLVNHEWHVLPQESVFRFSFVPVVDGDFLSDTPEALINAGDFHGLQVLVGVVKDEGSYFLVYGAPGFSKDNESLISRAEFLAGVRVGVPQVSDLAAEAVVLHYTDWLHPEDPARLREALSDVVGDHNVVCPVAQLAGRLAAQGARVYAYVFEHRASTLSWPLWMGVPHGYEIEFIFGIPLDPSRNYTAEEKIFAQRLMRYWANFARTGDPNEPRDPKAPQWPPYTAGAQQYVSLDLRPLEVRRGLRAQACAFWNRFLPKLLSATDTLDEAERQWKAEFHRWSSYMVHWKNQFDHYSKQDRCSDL
# protocol_details: Acetylcholinesterase (AChE) small molecule antagonists: enzyme-based qHTS assay (AID 1347397); further: nearly all actives have a fitted effect of over 55% in size
# particulars: AChE enzyme activity inhibition; series mostly up to 115 µM
Activity calls are given as the source filed them. Calls follow the shape of the full dose curve.
Possible outcomes: active, inactive

[
  {
    "smiles_entry": "C=CCOC(=O)c1ccccc1N",
    "class_assignment": "inactive"
  },
  {
    "smiles_entry": "CCOP(=O)(Sc1ccccc1)Sc1ccccc1",
    "class_assignment": "active"
  },
  {
    "smiles_entry": "Cc1ccc(C)c2ccccc12",
    "class_assignment": "inactive"
  },
  {
    "smiles_entry": "ClSC(Cl)(Cl)Cl",
    "class_assignment": "inactive"
  },
  {
    "smiles_entry": "O=C(N[C@H]1N=C(c2ccccc2F)c2cccc3c2N(CC3)C1=O)c1cc2ccccc2[nH]1",
    "class_assignment": "inactive"
  },
  {
    "smiles_entry": "O=C(O)CCCCCCNC1c2ccccc2CCc2ccccc21",
    "class_assignment": "inactive"
  },
  {
    "smiles_entry": "Oc1ccc([C@H]2CNCc3c2ccc(O)c3O)cc1O",
    "class_assignment": "inactive"
  }
]

----------
# protocol_details: qHTS assay to identify small molecule antagonists of the vitamin D receptor (VDR) signaling pathway - cell viability counter screen (AID 743225); further: nearly all actives have a fitted effect of over 50% in size
# particulars: VDR-bla HEK293T viability, CellTiter-Glo luminescence, 16 h; series mostly up to 61 µM
Inconclusive results are not listed. Activity calls are given as the source filed them. Calls come from the whole dose curve; as a rule, active = well fitted cell-killing curve with a large enough effect in the repeat runs; inconclusive = weak or mixed curves, or effect the other way; inactive = no such curve, though single readings can be large or run the other way.
Outcomes: active, inactive

[
  {
    "compound": "CC(Cc1ccc(OCC(=O)O)cc1)NCC(O)c1csc(C(F)(F)F)n1 (stereo not given)",
    "class_assignment": "inactive"
  },
  {
    "compound": "COc1ccc(Cc2nccc3cc(OC)c(OC)cc23)cc1OC",
    "class_assignment": "inactive"
  },
  {
    "compound": "COc1cnc(OC)n2nc(NS(=O)(=O)c3c(OCC(F)F)cccc3C(F)(F)F)nc12",
    "class_assignment": "inactive"
  },
  {
    "compound": "Oc1cccc(Cl)c1Cl",
    "class_assignment": "inactive"
  },
  {
    "compound": "Nc1ccccc1-c1ccccc1",
    "class_assignment": "inactive"
  },
  {
    "compound": "CNC(=O)Oc1cc(C)cc(C(C)C)c1",
    "class_assignment": "inactive"
  },
  {
    "compound": "CC(O)C(=O)[O][Hg][c]1ccccc1 (stereo not given)",
    "class_assignment": "active"
  },
  {
    "compound": "CC(=O)O.CC(=O)O.CC(=O)O.CC(=O)O.CC(=O)O.CC(=O)O.CC(=O)O.O.O.[Cr].[Cr].[Cr]",
    "class_assignment": "inactive"
  },
  {
    "compound": "C[C@]12C/C(=C/O)C(=O)C[C@@H]1CC[C@@H]1[C@@H]2CC[C@@]2(C)[C@H]1CC[C@]2(C)O",
    "class_assignment": "inactive"
  },
  {
    "compound": "CCOC(=O)CCN(SN(C)C(=O)Oc1cccc2c1OC(C)(C)C2)C(C)C",
    "class_assignment": "inactive"
  },
  {
    "compound": "CCCCN(CCCC)C(=S)[S-].CCCCN(CCCC)C(=S)[S-].[Ni+2]",
    "class_assignment": "inactive"
  },
  {
    "compound": "[Cl-].[Cl-].[Sn+2]",
    "class_assignment": "inactive"
  },
  {
    "compound": "COCCC#N",
    "class_assignment": "inactive"
  },
  {
    "compound": "CC(=O)[O-].CC(=O)[O-].[Co+2]",
    "class_assignment": "inactive"
  },
  {
    "compound": "CN1C2CCC(C)(C)C1CC(OC(=O)C(O)(c1cccs1)c1cccs1)C2 (stereo not given)",
    "class_assignment": "inactive"
  }
]

The origin of these recorded values is PubChem BioAssay (Tox21).
